System: OCT2 mutant 400C variant
Assay: MTT reduction cell viability assay, HEK-293 cells expressing OCT2 mutant 400C variant
Type: cell-based
Settings: human, 48 h exposure after 12 h incubation with cyclo(his-pro) 10 µmol/l, read-out: EC50 (95% confidence interval), cell viability
measurement.type: EC50 at 48 h (µM)
Answers are plain numbers, in µM.

The measured EC50 at 48 h associated with CC1NCCc2cc(O)c(O)cc21 (stereo not shown) reads 406

###

Biological target: OCT2 variant K432Q (Homo sapiens, UniProt O15244, K432Q/S270A)
Sequence (O15244 whole entry S270A/K432Q): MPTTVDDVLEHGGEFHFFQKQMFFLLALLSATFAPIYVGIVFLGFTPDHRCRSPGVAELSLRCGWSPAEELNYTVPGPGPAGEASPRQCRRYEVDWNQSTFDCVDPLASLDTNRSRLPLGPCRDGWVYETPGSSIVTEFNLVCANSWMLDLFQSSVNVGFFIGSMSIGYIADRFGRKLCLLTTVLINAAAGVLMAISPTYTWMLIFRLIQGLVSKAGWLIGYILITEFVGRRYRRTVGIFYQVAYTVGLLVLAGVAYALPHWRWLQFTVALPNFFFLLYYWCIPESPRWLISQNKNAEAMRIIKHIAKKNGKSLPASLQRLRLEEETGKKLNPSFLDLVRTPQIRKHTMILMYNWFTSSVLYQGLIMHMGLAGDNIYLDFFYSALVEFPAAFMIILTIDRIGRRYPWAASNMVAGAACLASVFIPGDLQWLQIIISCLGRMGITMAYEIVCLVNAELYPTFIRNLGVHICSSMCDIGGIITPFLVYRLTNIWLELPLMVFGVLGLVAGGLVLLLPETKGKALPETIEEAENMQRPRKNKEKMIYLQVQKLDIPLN
Assay: Specific uptake into HEK-293 cells transfected with OCT2 variant K432Q
Settings: human, pH 7.4
measurement.type: Km at 1 min (µM)
Answers are plain numbers, in µM.

The measured Km at 1 min associated with CC1NCCc2cc(O)c(O)cc21 (stereo not shown) reads 129

###

Target: OCT2 variant M165I (Homo sapiens, UniProt O15244, M165I/S270A)
Sequence (O15244 whole entry M165I/S270A): as the sequence (O15244 whole entry S270A/K432Q) above, with M165I, Q432K counted along it
Test: Specific uptake into HEK-293 cells transfected with OCT2 variant M165I
Conditions: human, pH 7.4
measurement.type: Km at 1 min (µM)
Give bare numbers, in µM.

The reported Km at 1 min value, OCT2 variant M165I (Homo sapiens, UniProt O15244, M165I/S270A), for CC1NCCc2cc(O)c(O)cc21 (stereo not shown) reads 127

###

Molecular target: OCT2 variant R400C (Homo sapiens, UniProt O15244, R400C/S270A)
Sequence (O15244 whole entry S270A/R400C): as the sequence (O15244 whole entry S270A/K432Q) above, with R400C, Q432K counted along it
Experiment: Specific uptake into HEK-293 cells transfected with OCT2 variant R400C (mutant 400C)
Details: human, pH 7.4
measurement.type: Km at 1 min (µM)
Numbers only, in µM.

The measured Km at 1 min associated with CC1NCCc2cc(O)c(O)cc21 (stereo not shown) [salsolinol] reads 123

###

System: OCT1
Test: MTT reduction cell viability assay, OCT1-transfected HEK-293 cells
Format: cell-based
Conditions: human, HEK-293 cells transfected with OCT1; 48 h exposure; read-out: EC50 (95% confidence interval), cell viability
measurement.type: EC50 at 48 h (µM)
One number for each entry, in µM.

The measured EC50 at 48 h associated with CC1NCCc2cc(O)c(O)cc21 (stereo not shown) reads 627
